- system_tested: crude extract AChE from R. padi (Rhopalosiphum padi, UniProt Q6BCH8)
- Sequence (Q6BCH8 18-652): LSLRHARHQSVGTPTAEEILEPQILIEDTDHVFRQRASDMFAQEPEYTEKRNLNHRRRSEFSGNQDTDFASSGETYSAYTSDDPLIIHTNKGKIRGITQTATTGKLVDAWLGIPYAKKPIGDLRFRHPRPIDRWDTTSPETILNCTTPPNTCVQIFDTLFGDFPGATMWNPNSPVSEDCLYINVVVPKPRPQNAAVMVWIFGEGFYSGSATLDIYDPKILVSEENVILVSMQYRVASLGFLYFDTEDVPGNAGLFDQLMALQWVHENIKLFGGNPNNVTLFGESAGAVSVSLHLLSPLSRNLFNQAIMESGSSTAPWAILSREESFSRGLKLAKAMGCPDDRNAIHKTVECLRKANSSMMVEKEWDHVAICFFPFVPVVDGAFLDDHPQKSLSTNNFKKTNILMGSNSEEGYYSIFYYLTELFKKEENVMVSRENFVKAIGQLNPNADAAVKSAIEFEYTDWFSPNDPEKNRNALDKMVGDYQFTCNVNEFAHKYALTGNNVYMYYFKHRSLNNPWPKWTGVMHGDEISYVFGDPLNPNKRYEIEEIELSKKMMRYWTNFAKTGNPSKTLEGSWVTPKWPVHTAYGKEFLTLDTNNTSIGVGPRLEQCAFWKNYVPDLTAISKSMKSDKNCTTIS
endpoint_name: pIC50
Note on units: pIC50 is unitless, being -log10 of a concentration expressed in mol/L.

[in] Fill in the recorded pIC50 for this compound, with crude extract AChE from R. padi (Rhopalosiphum padi, UniProt Q6BCH8) as test system: C=CC[N+](C)(C)c1ccc(CCC(=O)CCc2ccc([N+](C)(C)CC=C)cc2)cc1.[Br-].[Br-] [BW284C51]
[out] 5.01

###

- system_tested: crude extract AChE from S. avenae (Sitobion avenae)
- measurement_protocol: Substrate specificity and kinetic analysis of crude extract AChE from S. avenae
- Format: biochemical
- experimental_setup: compound as substrate, 30°C, read-out: Km ± SE
endpoint_name: Km (µM)
# output: bare number, implied unit µM

{"columns": ["compound", "uom", "Km"],
 "data": [
  ["CC(=O)SCC[N+](C)(C)C.[I-] [ATCh, Acetylthiocholine iodide]", "µM", 650],
  ["CCCC(=O)SCC[N+](C)(C)C.[I-] [BuTCh, butyrylthiocholine iodide]", "µM", 15100],
  ["CCC(=O)SCC[N+](C)(C)C.[I-] [PrTCh, propionylthiocholine iodide]", "µM", 570]
]}

[in] Fill in the recorded Km for this compound, with crude extract AChE from S. avenae (Sitobion avenae) as test system: CC(=O)SC(C)C[N+](C)(C)C (stereo not drawn) [MeTCh, acetyl-(β-methyl) thiocholine]
[out] 400

###

- system_tested: crude extract AChE from R. padi (Rhopalosiphum padi, UniProt Q6BCH8)
- measurement_protocol: Substrate specificity and kinetic analysis of crude extract AChE from R. padi
- Format: biochemical
- experimental_setup: compound as substrate, 30°C, read-out: Km ± SE
endpoint_name: Km (µM)
# output: bare number, implied unit µM

See these solved cases before continuing.
{"columns": ["molecule", "system_tested", "Km (µM)"],
 "data": [
  ["CC(=O)SC(C)C[N+](C)(C)C (stereo not drawn) [MeTCh, acetyl-(β-methyl) thiocholine]", "crude extract AChE from R. padi (Rhopalosiphum padi, UniProt Q6BCH8)", 290],
  ["CCCC(=O)SCC[N+](C)(C)C.[I-] [BuTCh, butyrylthiocholine iodide]", "crude extract AChE from R. padi (Rhopalosiphum padi, UniProt Q6BCH8)", 5340],
  ["CC(=O)SCC[N+](C)(C)C.[I-] [ATCh, Acetylthiocholine iodide]", "crude extract AChE from R. padi (Rhopalosiphum padi, UniProt Q6BCH8)", 360]
]}

Next, consider the following molecule.
[in] Can you share its Km? I mean this molecule: CCC(=O)SCC[N+](C)(C)C.[I-] [PrTCh, propionylthiocholine iodide]
[out] 180

###

- system_tested: UniProtKB Q66S75
- measurement_protocol: Substrate specificity and kinetic analysis of crude extract AChE from S. avenae
- Assay type: biochemical
- experimental_setup: compound as substrate, 30°C
endpoint_name: Vmax ± SE (nmol/min/mg protein)
# output: bare number, implied unit nmol/min/mg protein

See these solved cases before continuing.
{"columns": ["compound", "Vmax ± SE / nmol/min/mg protein"],
 "data": [
  ["CC(=O)SC(C)C[N+](C)(C)C (stereo not drawn) [MeTCh, acetyl-(β-methyl) thiocholine]", 1.01],
  ["CCCC(=O)SCC[N+](C)(C)C.[I-] [BuTCh, butyrylthiocholine iodide]", 11.88],
  ["CC(=O)SCC[N+](C)(C)C.[I-] [ATCh, Acetylthiocholine iodide]", 1.16]
]}

Next, consider the following compound.
[in] Can you share its Vmax ± SE? I mean this compound: CCC(=O)SCC[N+](C)(C)C.[I-] [PrTCh, propionylthiocholine iodide]
[out] 1.04

###

Entries and their Km values follow.
- system_tested: purified AChE from S. avenae (Sitobion avenae)
- Sequence (Q66S75 23-664): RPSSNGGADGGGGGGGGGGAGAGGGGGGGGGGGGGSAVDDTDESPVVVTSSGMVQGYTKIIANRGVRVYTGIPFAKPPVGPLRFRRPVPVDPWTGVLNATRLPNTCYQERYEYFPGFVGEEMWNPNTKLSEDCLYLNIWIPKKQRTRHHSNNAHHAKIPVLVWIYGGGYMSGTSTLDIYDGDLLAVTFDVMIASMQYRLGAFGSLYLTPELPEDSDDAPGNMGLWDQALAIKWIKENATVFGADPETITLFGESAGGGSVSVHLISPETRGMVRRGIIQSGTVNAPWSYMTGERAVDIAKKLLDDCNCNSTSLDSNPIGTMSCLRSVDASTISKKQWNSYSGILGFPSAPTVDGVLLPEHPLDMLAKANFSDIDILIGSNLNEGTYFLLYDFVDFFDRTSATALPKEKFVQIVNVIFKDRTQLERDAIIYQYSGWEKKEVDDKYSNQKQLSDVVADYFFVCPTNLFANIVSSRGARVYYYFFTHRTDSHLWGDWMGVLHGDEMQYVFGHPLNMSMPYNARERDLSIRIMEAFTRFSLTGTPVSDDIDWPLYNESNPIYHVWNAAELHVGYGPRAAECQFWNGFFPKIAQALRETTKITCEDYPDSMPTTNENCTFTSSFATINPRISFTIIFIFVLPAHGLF
- measurement_protocol: Substrate specificity and kinetic analysis of purified AChE from S. avenae
- Format: biochemical
- experimental_setup: compound as substrate, 30°C, read-out: Km ± SE
# output: bare number, implied unit mM

See these solved cases before continuing.
{"columns": ["compound", "uom", "Km"],
 "data": [
  ["CCC(=O)SCC[N+](C)(C)C.[I-] [PrTCh, propionylthiocholine iodide]", "mM", 0.93],
  ["CC(=O)SCC[N+](C)(C)C.[I-] [ATCh, Acetylthiocholine iodide]", "mM", 2.28],
  ["CCCC(=O)SCC[N+](C)(C)C.[I-] [BuTCh, butyrylthiocholine iodide]", "mM", 1.69]
]}

Next, consider the following compound.
[in] Fill in the recorded Km for this compound, with purified AChE from S. avenae (Sitobion avenae) as test system: CC(=O)SC(C)C[N+](C)(C)C (stereo not shown)
[out] 2.23

###

- system_tested: purified AChE from R. padi (Rhopalosiphum padi)
- Sequence (Q6BCH8 18-652): as the sequence (Q6BCH8 18-652) above
- measurement_protocol: Substrate specificity and kinetic analysis of purified AChE from R. padi
- Format: biochemical
- experimental_setup: compound as substrate, 30°C
- Method: Purification of AChE from both aphid species was performed by affinity chromatography using procainamide as the affinity ligand. The procedure used in this study was according to the method of Gao and Zhu ([2001]) with some modifications, as follows: Step 1: Preparation of crude extract. […] AChE activities were determined according to the method of Ellman et al. ([1961]) modified by Gao ([1987]), using ATCh, PrTCh, MeTCh and BuTCh as substrates. […]
Entries and their Vmax ± SE values follow.
# output: bare number, implied unit nmol/min/mg protein

See these solved cases before continuing.
{"columns": ["molecule", "uom", "Vmax ± SE"],
 "data": [
  ["CC(=O)SC(C)C[N+](C)(C)C (stereo not drawn) [MeTCh, acetyl-(β-methyl) thiocholine]", "nmol/min/mg protein", 31.58],
  ["CCC(=O)SCC[N+](C)(C)C.[I-] [PrTCh, propionylthiocholine iodide]", "nmol/min/mg protein", 24.24],
  ["CC(=O)SCC[N+](C)(C)C.[I-] [ATCh, Acetylthiocholine iodide]", "nmol/min/mg protein", 37.58]
]}

[in] Can you share its Vmax ± SE? I mean this molecule: CCCC(=O)SCC[N+](C)(C)C.[I-] [BuTCh, butyrylthiocholine iodide]
[out] 2.17

###

Entries and their Vmax ± SE values follow.
- system_tested: crude extract AChE from R. padi (Rhopalosiphum padi)
- measurement_protocol: Substrate specificity and kinetic analysis of crude extract AChE from R. padi
- Format: biochemical
- experimental_setup: compound as substrate, 30°C
# output: bare number, implied unit nmol/min/mg protein

See these solved cases before continuing.
{"columns": ["compound", "endpoint_name", "value_reported"],
 "data": [
  ["CCCC(=O)SCC[N+](C)(C)C.[I-] [BuTCh, butyrylthiocholine iodide]", "Vmax ± SE", 4.12],
  ["CC(=O)SC(C)C[N+](C)(C)C (stereo not shown)", "Vmax ± SE", 1.10],
  ["CCC(=O)SCC[N+](C)(C)C.[I-] [PrTCh, propionylthiocholine iodide]", "Vmax ± SE", 0.76]
]}

Next, consider the following compound.
[in] Fill in the recorded Vmax ± SE for this compound, with crude extract AChE from R. padi (Rhopalosiphum padi) as test system: CC(=O)SCC[N+](C)(C)C.[I-] [ATCh, Acetylthiocholine iodide]
[out] 1.27

###

- system_tested: purified AChE from R. padi (Rhopalosiphum padi)
- measurement_protocol: Substrate specificity and kinetic analysis of purified AChE from R. padi
- Type: biochemical
- experimental_setup: compound as substrate, 30°C, read-out: Km ± SE
endpoint_name: Km
Write down the value, and be sure its unit follows.

See these solved cases before continuing.
{"columns": ["compound", "system_tested", "Km"],
 "data": [
  ["CC(=O)SC(C)C[N+](C)(C)C (stereo not shown)", "purified AChE from R. padi (Rhopalosiphum padi)", "2450 µM"],
  ["CCC(=O)SCC[N+](C)(C)C.[I-] [PrTCh, propionylthiocholine iodide]", "purified AChE from R. padi (Rhopalosiphum padi)", "850 µM"],
  ["CCCC(=O)SCC[N+](C)(C)C.[I-] [BuTCh, butyrylthiocholine iodide]", "purified AChE from R. padi (Rhopalosiphum padi)", "670 µM"]
]}

Next, consider the following compound.
[in] Can you share its Km? I mean this compound: CC(=O)SCC[N+](C)(C)C.[I-] [ATCh, Acetylthiocholine iodide]
[out] 2180 µM
